Biological target: PI3K (p110α/p85α) (Homo sapiens)
Construct: purchased Carna Biosciences 07CBS-0402A
Assay: PI3K activity assay (ADP Hunter Plus)
Type: biochemical
Conditions: quantitative results; read-out: PI3K α IC50
ASSAY_METRIC: IC50 (nM)

Example compounds with recorded IC50:
INSERT INTO measurements (compound, u, quantitative_readout) VALUES
  ('COCCC(=O)N1CCc2c(nc3c(N4CCOCC4)nc(-c4cnc(N)nc4)cn23)C1 [6-35]', 'nM', 79),
  ('CS(=O)(=O)N1CCc2c(nc3c(N4CCOCC4)nc(-c4cnc(N)nc4)c(Cl)n23)C1 [6-17]', 'nM', 33),
  ('CN(C)c1ccc(NC(=O)N2CCc3c(nc4c(N5CCOCC5)nc(-c5cnc(N)nc5)cn34)C2)cc1 [6-39]', 'nM', 17),
  ('N#Cc1cccc(NC(=O)N2CCc3nc4c(N5CCOCC5)nc(-c5cnc(N)nc5)cn4c3C2)c1 [2-113]', 'nM', 81),
  ('Nc1ncc(-c2cn3c4c(nc3c(N3CCOCC3)n2)CN(S(=O)(=O)C2CCOCC2)CC4)cn1 [6-28]', 'nM', 18),
  ('COCCN1CCc2c(nc3c(N4CCOCC4)nc(-c4cnc(N)nc4)c(Cl)n23)C1 [6-09]', 'nM', 121),
  ('COc1ccccc1CNC(=O)N1CCc2c(nc3c(N4CCOCC4)nc(-c4cnc(N)nc4)cn23)C1 [6-46]', 'nM', 7),
  ('Nc1ncc(-c2cn3c4c(nc3c(N3CCOCC3)n2)CCN(S(=O)(=O)C2CNC2)C4)cn1 [2-110]', 'nM', 7),
  ('COc1ccc(CN2CCc3c(nc4c(N5CCOCC5)nc(-c5cnc(N)nc5)cn34)C2=O)cc1 [5-06]', 'nM', 45);

I: COCCN1CCc2c(nc3c(N4CCOCC4)nc(-c4cnc(N)nc4)cn23)C1 [6-03]
II: COc1ccccc1NC(=O)N1CCc2c(nc3c(N4CCOCC4)nc(-c4cnc(N)nc4)cn23)C1 [6-33]
III: Nc1ncc(-c2nc(N3CCOCC3)c3nc4c(n3c2Cl)CCN(Cc2ccc(F)cc2)C4)cn1 [6-12]
Write the entries in order, lowest recorded IC50 first. Give the labels in the order requested.
II, I, III
(II: 25 nM, I: 50 nM, III: 290 nM)

----------
Target: PI3K (p110α/p85α) (Homo sapiens, UniProt P42336)
Construct: purchased Carna Biosciences 07CBS-0402A
Sequence (P42336 whole entry): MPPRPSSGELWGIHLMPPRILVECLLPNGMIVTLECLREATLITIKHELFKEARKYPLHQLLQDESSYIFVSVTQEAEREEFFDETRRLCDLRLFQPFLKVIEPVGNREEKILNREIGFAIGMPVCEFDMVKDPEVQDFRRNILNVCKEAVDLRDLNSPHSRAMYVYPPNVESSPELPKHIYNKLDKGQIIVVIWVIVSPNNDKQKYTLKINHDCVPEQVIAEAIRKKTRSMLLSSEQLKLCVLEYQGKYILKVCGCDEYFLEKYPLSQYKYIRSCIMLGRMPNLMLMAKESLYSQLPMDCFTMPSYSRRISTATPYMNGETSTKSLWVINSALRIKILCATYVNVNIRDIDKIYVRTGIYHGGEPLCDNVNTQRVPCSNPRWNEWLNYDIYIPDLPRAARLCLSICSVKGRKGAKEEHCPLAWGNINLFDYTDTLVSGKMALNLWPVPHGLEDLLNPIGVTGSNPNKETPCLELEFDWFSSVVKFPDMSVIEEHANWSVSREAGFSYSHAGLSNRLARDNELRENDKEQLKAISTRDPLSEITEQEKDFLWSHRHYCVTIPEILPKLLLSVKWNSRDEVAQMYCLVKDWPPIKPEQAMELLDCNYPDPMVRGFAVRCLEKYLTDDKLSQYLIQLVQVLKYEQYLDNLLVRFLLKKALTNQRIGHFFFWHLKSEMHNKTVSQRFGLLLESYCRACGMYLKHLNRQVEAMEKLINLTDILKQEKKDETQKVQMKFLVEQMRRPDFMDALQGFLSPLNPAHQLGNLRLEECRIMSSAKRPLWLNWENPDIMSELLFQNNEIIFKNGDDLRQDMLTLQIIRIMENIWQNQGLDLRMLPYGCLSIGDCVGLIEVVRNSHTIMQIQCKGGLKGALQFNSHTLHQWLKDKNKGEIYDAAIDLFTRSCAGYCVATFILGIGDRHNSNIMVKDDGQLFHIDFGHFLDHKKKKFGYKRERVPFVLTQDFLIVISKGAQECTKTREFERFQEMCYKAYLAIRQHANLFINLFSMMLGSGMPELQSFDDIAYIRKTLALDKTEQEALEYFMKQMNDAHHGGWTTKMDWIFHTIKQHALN
Sequence (P27986 whole entry partner): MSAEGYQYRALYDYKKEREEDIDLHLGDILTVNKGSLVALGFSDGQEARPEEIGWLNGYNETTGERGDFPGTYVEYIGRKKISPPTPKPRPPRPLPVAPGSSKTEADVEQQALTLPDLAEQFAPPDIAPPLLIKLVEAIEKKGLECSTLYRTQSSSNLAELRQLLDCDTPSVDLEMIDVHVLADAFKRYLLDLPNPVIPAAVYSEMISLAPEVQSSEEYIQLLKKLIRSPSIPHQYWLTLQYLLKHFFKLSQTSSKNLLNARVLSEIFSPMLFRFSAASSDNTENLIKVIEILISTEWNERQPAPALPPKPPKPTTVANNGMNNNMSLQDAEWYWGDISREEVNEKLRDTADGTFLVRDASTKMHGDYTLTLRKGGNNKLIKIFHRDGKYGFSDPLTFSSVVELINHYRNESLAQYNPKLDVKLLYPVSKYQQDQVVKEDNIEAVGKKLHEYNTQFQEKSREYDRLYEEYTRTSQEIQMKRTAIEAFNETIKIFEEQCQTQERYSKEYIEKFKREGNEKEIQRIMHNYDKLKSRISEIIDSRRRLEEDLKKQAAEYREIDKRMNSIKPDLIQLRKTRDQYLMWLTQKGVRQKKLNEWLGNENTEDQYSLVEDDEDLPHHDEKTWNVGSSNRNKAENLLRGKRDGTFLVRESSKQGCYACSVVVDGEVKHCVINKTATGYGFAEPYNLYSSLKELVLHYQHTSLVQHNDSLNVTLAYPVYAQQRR
Experiment: PI3K activity assay (ADP Hunter Plus)
Type: biochemical
Settings: quantitative results; read-out: PI3K α IC50
pIC50: −log10 of the molar value.
ASSAY_METRIC: pIC50

INSERT INTO results (compound, assayed_target, quantitative_readout) VALUES
  ('Nc1ncc(-c2cn3c4c(nc3c(N3CCOCC3)n2)CN(C(=O)Nc2cccc(F)c2)CC4)cn1 [6-45]', 'PI3K (p110α/p85α) (Homo sapiens, UniProt P42336)', 7.85),
  ('Nc1ncc(-c2cn3c4c(nc3c(N3CCOCC3)n2)CCN(Cc2nccs2)C4)cn1 [2-111]', 'PI3K (p110α/p85α) (Homo sapiens, UniProt P42336)', 6.86),
  ('Nc1ncc(-c2cn3c4c(nc3c(N3CCOCC3)n2)CN(C(=O)Nc2ccccc2F)CC4)cn1 [6-36]', 'PI3K (p110α/p85α) (Homo sapiens, UniProt P42336)', 7.68);

a: CC(C)NC(=O)N1CCc2c(nc3c(N4CCOCC4)nc(-c4cnc(N)nc4)cn23)C1 [6-22]
b: Nc1ncc(-c2cn3c4c(nc3c(N3CCOCC3)n2)CCC(=O)N4)cn1 [5-11]
Between the entries labeled a and b , whose measured pIC50 is lower? Output the label that corresponds to your choice.
a

Where do the numbers come from? From patent US20130029967A1.
